Origin of measurements: patent EP2028187A1

# reported β3/BSA Ratio; entries follow
- Assay target: T1, GST-β3cyto (GST fusion protein of the integrin β3 cytoplasmic domain) (UniProt O54890)
- T1 sequence: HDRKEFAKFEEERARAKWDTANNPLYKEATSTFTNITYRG
- Assay name: phage colonies recovered from β3-GST-coated wells divided by those from BSA wells
Measurement kind: β3/BSA Ratio

YDWWYPWSW [phage displaying … (SEQ ID NO:95)]: 163
CNLSSEQC [phage displaying CNLSSEQC (SEQ ID NO:103)]: 62
SDWYYPWSW [phage displaying … (SEQ ID NO:100), selected on β3]: 157
CEQRQTQEGC [phage displaying … (SEQ ID NO:93)]: 14
CARLEVLLPC [phage displaying … (SEQ ID NO:94)]: 18.7
YEWWYWSWA [phage displaying … (SEQ ID NO:98)]: 28.1
SDNRYIGSW [phage displaying … (SEQ ID NO:97)]: 32
CFQNRC [phage displaying CFQNRC (SEQ ID NO:102)]: 16
GLDTYRGSP [phage displaying … (SEQ ID NO:96)]: 48
KVSWYLDNG [phage displaying … (SEQ ID NO:99)]: 20
CLRQSYSYNC [phage displaying … (SEQ ID NO:104)]: 3.2
